Exercise: for every item that follows, state its recorded % Inh @ 300 nM (% Inhibition of 125I-PYY Binding).
Molecular target: human neuropeptide Y5 receptor (Homo sapiens)
Construct: expressed in transfected cells; host or cells: HEK-293 (stably transfected, G-418 selected); membranes
Sequence (Q15761 whole entry): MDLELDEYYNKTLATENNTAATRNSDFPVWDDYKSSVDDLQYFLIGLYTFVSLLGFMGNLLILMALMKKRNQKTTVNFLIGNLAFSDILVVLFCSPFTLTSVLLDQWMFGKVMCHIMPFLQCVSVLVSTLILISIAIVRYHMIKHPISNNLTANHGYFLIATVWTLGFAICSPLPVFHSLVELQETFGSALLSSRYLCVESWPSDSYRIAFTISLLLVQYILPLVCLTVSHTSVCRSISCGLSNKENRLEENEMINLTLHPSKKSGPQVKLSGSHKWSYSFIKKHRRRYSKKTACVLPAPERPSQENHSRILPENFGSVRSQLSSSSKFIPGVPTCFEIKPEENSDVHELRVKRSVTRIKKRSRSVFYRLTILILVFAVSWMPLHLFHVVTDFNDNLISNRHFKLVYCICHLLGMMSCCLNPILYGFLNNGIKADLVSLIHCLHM
Assay: NPY5 HTS centrifugation assay: competition with 125I-PYY for binding to membranes of NPY5-transfected HEK293 cells
Details: 300 nM compound, 80 pM 125I-PYY, 1 hr room temperature
The figure you give is taken to be in %; do not add the unit.

Q) Need % Inh @ 300 nM (% Inhibition of 125I-PYY Binding) of CC(C)(C)OC(=O)NC1CCN(CC(=O)NC2CCc3cc(F)ccc3C2Cc2cccnc2)CC1 (centres unmarked) [Compound 54] , thanks.
A) 99

Q) Would you kindly share the measured % Inh @ 300 nM (% Inhibition of 125I-PYY Binding) for O=C(CN1CCC(NS(=O)(=O)c2ccccc2)C1)NC1CCc2cc(F)ccc2C1Cc1cccnc1 (mixture of isomers) [Compound 59] ?
A) 90

Q) Look at this compound and give its reported % Inh @ 300 nM (% Inhibition of 125I-PYY Binding). CC(C)(C)OC(=O)NC1CCN(CC(=O)NC2CCc3cc(F)ccc3C2Cc2cccnc2)C1 (mixture of isomers) [Compound 57]
A) 87

Q) What does the record list as % Inh @ 300 nM (% Inhibition of 125I-PYY Binding) for COc1ccc(C(CNC(=O)CN2CCC(n3c(=O)[nH]c4ccccc43)CC2)Cc2cccnc2)cc1 (centres unmarked) [Compound 86] ?
A) 88

Q) I have this compound here, CC(C)(C)NC(=O)NC1CCN(CC(=O)NC2CCc3cc(F)ccc3C2Cc2cccnc2)CC1 (centres unmarked) [Compound 53] , and I need its recorded % Inh @ 300 nM (% Inhibition of 125I-PYY Binding).
A) 84

Q) # query: % Inh @ 300 nM (% Inhibition of 125I-PYY Binding) of entry O=C(CN1CCC(NC(=O)c2ccccc2)C1)NC1CCc2cc(F)ccc2C1Cc1cccnc1 (mixture of isomers) [Compound 60]
A) 86

Q) I am curious: what % Inh @ 300 nM (% Inhibition of 125I-PYY Binding) value has been reported for O=C(Cc1ccccc1)NC1CCN(CC(=O)NC2CCc3cc(F)ccc3C2Cc2cccnc2)CC1 (centres unmarked) [Compound 47] ?
A) 91

Q) Field request: % Inh @ 300 nM (% Inhibition of 125I-PYY Binding) | item: CC(C)(C)OC(=O)NC1CCN(CC(=O)NC2CCc3cc(F)ccc3C2Cc2cccnc2)C1 (mixture of isomers) [Compound 56]
A) 88

Q) Which % Inh @ 300 nM (% Inhibition of 125I-PYY Binding) value is on record for CC(=O)NC(CCCCNS(=O)(=O)c1ccccc1)C(=O)NC1CCc2ccccc2C1Cc1cccnc1 (mixture of isomers) [Compound 37] ?
A) 89

Q) Need % Inh @ 300 nM (% Inhibition of 125I-PYY Binding), item O=C(CN1CCC(n2c(=O)[nH]c3ccccc32)CC1)NC1CCc2cc(O)ccc2C1 (centres unmarked) [Compound 83]
A) 72

Q) GET /values?readout=% Inh @ 300 nM (% Inhibition of 125I-PYY Binding)&item= O=C(CN1CCC(NS(=O)(=O)c2ccccc2)C1)NC1CCc2cc(F)ccc2C1Cc1cccnc1 (mixture of isomers) [Compound 58]
A) 93

Q) What does the data say about its % Inh @ 300 nM (% Inhibition of 125I-PYY Binding)? Entry: NC(CCCCNS(=O)(=O)c1ccccc1)C(=O)NC1CCc2ccccc2C1Cc1cccnc1 (mixture of isomers) [Compound 33]
A) 52

Q) Looking for the measured % Inh @ 300 nM (% Inhibition of 125I-PYY Binding) of NC(CCCCNS(=O)(=O)c1ccccc1)C(=O)NC1CCc2ccccc2C1Cc1cccnc1 (single isomer, unassigned) [Compound 34a] , can you help?
A) 87

Q) Form field: reported % Inh @ 300 nM (% Inhibition of 125I-PYY Binding) of O=C(CN1CCC(NC(=O)Nc2ccccc2)CC1)NC1CCc2cc(F)ccc2C1Cc1cccnc1 (centres unmarked) [Compound 45]
A) 68
